Target: Insulin receptor-related protein (Homo sapiens) (UniProt P14616);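 further: each reported figure is the mean of the IRR inhibition readings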
Sequence (P14616 27-742 limits assumed): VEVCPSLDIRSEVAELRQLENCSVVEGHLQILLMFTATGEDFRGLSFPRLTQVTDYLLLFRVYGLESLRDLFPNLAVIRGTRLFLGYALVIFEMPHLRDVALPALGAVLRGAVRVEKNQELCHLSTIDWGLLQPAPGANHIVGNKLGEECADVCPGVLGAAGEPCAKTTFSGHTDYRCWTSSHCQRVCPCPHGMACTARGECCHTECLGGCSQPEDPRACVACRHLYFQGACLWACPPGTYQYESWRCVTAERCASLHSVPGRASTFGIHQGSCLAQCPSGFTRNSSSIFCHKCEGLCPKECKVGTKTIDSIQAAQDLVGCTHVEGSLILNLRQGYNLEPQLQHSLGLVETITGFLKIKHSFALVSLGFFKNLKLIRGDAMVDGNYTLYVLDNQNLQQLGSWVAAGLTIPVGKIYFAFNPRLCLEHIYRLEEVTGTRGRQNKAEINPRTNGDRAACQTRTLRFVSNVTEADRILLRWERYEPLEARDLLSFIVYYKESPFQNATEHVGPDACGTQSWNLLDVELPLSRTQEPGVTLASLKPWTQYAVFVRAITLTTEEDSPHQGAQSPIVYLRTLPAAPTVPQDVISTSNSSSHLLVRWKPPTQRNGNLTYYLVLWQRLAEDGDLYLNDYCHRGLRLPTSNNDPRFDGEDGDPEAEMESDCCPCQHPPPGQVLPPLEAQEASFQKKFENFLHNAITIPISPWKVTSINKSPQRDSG
Sequence (P14616 747-1297 limits assumed): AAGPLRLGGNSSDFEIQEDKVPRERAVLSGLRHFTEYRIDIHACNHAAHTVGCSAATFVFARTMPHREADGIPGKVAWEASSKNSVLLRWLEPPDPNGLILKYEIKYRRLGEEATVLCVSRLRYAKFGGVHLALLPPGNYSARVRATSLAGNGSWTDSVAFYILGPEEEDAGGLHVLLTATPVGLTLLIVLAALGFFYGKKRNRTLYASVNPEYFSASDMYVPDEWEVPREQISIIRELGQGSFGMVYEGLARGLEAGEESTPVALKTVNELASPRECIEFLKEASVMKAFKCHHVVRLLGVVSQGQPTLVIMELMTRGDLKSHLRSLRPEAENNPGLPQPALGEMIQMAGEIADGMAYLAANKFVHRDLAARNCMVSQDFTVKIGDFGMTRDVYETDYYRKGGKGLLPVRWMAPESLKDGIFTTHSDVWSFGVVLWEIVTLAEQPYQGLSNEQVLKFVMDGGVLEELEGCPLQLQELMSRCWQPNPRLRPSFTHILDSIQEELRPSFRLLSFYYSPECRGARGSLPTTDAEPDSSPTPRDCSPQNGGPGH
Conditions: at 1 µM
Below, each entry is listed with its recorded inhibition.
Report the figure in % without appending any unit label.

Answered cases to consult:
INSERT INTO measurements (test_smiles, assay_endpoint, experimental_result) VALUES
  ('Fc1ccc(-c2ncn(CCCN3CCOCC3)c2-c2ccncc2)cc1', 'inhibition', 0.12),
  ('CCC(=O)Nc1ccc(C)c(-c2ccc(C(=O)NCC3CC3)cc2)c1', 'inhibition', 1.59),
  ('Cc1ccc(NC(=O)c2ccoc2)cc1-c1ccc(C(=O)NCC2CC2)cc1', 'inhibition', 0.32),
  ('CN(C)CCCNc1nccc(-c2c(-c3ccc(F)cc3)nn3cc(C(F)(F)F)ccc23)n1', 'inhibition', 0.73);

Proceeding to the next molecule to report its inhibition.
## Task Returns the measured inhibition for the input molecule. Input: C[C@@H](Oc1cc(-n2cnc3ccc(OC4CCN(C)CC4)cc32)sc1C(N)=O)c1ccccc1Cl
## Result 3.03

Entry source: ChEMBL document CHEMBL1961873
